Listed next: entries and their corresponding CC50 at 20 h.
test: Cytotoxicity against african green monkey BSC1 cells after 20 hrs WST-1 based assay; format: cell-based, BSC-1; settings: chlorocebus aethiops, read-out: TC50
Just the number in µM, nothing appended.

OCC(O)Cn1c2ccc(Br)cc2c2cc(Br)ccc21 (centres undefined): 29
Cc1nc2ccccc2c2oc(C(=O)NCCN(C)C3CCCCC3)cc12: 143

Now for a further molecule.
Query: What does the record list as CC50 at 20 h for `CC1CCN(CCCNC(=O)c2cc3c(=O)n(C)c4ccccc4c3s2)CC1` ?
Reply: 75

* * *

assay: Cytotoxicity against african green monkey BSC1 cells after 72 hrs WST-1 based assay; assay type: cell-based, BSC-1; details: chlorocebus aethiops, read-out: TC50
CC50 at 72 h: recorded values

Below, 4 molecules whose answers are already recorded.
Nc1ccn(C[C@@H](CO)OCP(=O)(O)O)c(=O)n1 [CIDOFOVIR]: > 500 µM
O=C1/C(=C/C2CCCO2)CC/C1=C\C1CCCO1 (stereo unspecified): > 100 µM
CC(=O)n1c2ccccc2c2nc(C)sc21: > 200 µM
N=C1S/C(=C/c2ccco2)C(=O)N1c1nccs1: > 100 µM

Query: Could you share which CC50 at 72 h value was measured for `Cc1cc(OC(=O)c2ccco2)nc(SCc2c(Cl)cccc2Cl)n1` ?
Reply: > 100 µM

Query: Next: `N=C1/C(=C/c2coc3ccccc3c2=O)C(=O)N=C2SC=NN12`
Reply: > 200 µM
